FYI, the data here is from paper PMC12703733.

format: cell-based, human; conditions: human, Cell viability (%)
Bridge positions count the residues as written; N and C are the ends. Square brackets hold non-standard residues; d marks the D form. Peptide text beside a SMILES is read from it. * marks the point of attachment. Butanoyl(4-guanidino) = N=C(N)NCCCC(=O)*
ENDPOINT_LABEL: viability at 24 h, 100 µM
Quote the value and follow it with the unit of measurement.

CC[C@H](C)[C@H](NC(=O)[C@H](CCCNC(=N)N)NC(=O)[C@H]1CCC(=O)NCCCC[C@H](NC(=O)[C@H](Cc2ccccc2)NC(=O)[C@H](Cc2c[nH]c3ccccc23)NC(=O)[C@@H]2CCCN2C(=O)[C@@H](NC(=O)[C@H](Cc2ccccc2)NC(=O)CCCNC(=N)N)C(C)C)C(=O)N[C@@H](CCCCN)C(=O)N[C@@H](Cc2ccccc2)C(=O)N[C@H](CC(C)C)C(=O)N1)C(=O)N[C@@H](CC(C)C)C(N)=O [Peptide 5, guanidino-GABA-FVPWF[KKFle]RIL] ({Butanoyl(4-guanidino)}-FVPWFKKF[dL][dE]RIL-NH2; lactam 6-10) yielded viability at 24 h, 100 µM of 1%
